Biological target: KAT-6A (Homo sapiens (Human), UniProt Q92794)
Sequence (Q92794 other isoform, or with tags, fused parts or gaps): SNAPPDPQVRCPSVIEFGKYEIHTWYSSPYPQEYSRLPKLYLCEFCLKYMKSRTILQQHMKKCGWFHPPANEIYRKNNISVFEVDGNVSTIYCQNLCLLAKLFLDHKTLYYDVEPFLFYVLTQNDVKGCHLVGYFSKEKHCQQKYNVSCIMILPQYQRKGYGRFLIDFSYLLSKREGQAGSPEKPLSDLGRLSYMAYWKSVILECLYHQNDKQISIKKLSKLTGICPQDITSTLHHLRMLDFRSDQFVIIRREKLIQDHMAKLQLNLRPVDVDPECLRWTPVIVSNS
Experiment: KAT-6A biochemical inhibition assay (SAMDI mass spectrometry)
Conditions: Table 5
Reported IC50 values are given for each entry in this list.

CNCCCS(=O)(=O)NNC(=O)c1cc(-c2cccc(C)c2)ccc1F; > 100 µM
Cc1cccc(-c2cc(Cl)c(F)c(C(=O)NNS(=O)(=O)CC3CN(C(=O)OC(C)(C)C)C3)c2)c1; 10 to 50 µM

# input Note down IC50 recorded for COCc1cc(Cl)c(F)c(C(=O)NNS(=O)(=O)c2cccc(O)c2)c1
# output ≤ 1 µM

# input Complete the entry with IC50 for Cc1cccc(-c2cc(Cl)c(F)c(C(=O)NNS(=O)(=O)C3CCC(NC(=O)OC(C)(C)C)C3)c2)c1 (centres unmarked)
# output 50 to 100 µM

# input # return recorded IC50 for input Cc1cccc(-c2cc(Cl)c(F)c(C(=O)NNS(=O)(=O)CC3CNC3)c2)c1
# output > 100 µM

# input Provide one value: measured IC50 of Cc1cc(-c2cccc(F)c2)cc(C(=O)NNS(=O)(=O)c2cccc(O)c2)c1F
# output ≤ 1 µM

# input Read off the recorded IC50 for Cc1cccc(-c2cc(Cl)c(F)c(C(=O)NNS(=O)(=O)C[C@H]3CCCNC3)c2)c1
# output > 100 µM

# input Name the recorded IC50 of the item Cc1cccc(-c2cc(Cl)c(F)c(C(=O)NNS(=O)(=O)CC3CN(C(=O)OC(C)(C)C)CCN3C(=O)OC(C)(C)C)c2)c1 (centres unmarked) in your answer.
# output > 100 µM

# input For the compound Cc1cccc(-c2cc(Cl)c(F)c(C(=O)NNS(=O)(=O)CCCN(C)Cc3ccccc3)c2)c1 , report IC50.
# output > 100 µM

# input Find the measured IC50 of O=C(NNS(=O)(=O)c1cccc(O)c1)c1cc(-c2ccccc2)cc(Cl)c1F and report it.
# output ≤ 1 µM

# input Provide IC50 value for the following compound: Cc1cccc(-c2cc(Cl)c(F)c(C(=O)NNS(=O)(=O)C(C)C3CCCN(C(=O)OC(C)(C)C)C3)c2)c1 (centres unmarked)
# output > 100 µM

# input Fill in reported IC50 for this entry: Cc1cccc(-c2cc(C)c(F)c(C(=O)NNS(=O)(=O)CC3CCCNC3)c2)c1 (centres unmarked)
# output > 100 µM

# input # return recorded IC50 for input Cc1cccc(-c2cc(C)c(F)c(C(=O)NNS(=O)(=O)CC3CCNC3)c2)c1 (centres unmarked)
# output > 100 µM

# input Give the reported IC50 for this compound. Cc1cccc(-c2cc(Cl)c(F)c(C(=O)NNS(=O)(=O)CC3CNCCN3)c2)c1 (centres unmarked)
# output > 100 µM

---

Molecular target: KAT-8 (Homo sapiens (Human), UniProt Q9H7Z6)
Sequence (Q9H7Z6 other isoform, or with tags, fused parts or gaps): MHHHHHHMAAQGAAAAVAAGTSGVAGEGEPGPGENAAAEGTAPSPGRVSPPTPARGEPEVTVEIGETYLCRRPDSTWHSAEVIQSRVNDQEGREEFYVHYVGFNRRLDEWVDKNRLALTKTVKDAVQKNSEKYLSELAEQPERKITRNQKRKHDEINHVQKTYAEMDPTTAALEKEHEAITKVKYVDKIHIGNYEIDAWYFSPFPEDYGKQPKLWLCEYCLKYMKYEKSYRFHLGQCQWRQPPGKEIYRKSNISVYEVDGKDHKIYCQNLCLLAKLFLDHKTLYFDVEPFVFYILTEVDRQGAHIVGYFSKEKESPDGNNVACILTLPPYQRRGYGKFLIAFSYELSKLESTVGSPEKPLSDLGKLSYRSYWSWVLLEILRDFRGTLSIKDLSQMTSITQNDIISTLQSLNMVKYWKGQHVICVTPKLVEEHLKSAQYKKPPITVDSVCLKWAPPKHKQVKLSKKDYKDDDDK
Experiment: KAT-8 biochemical inhibition assay (SAMDI mass spectrometry)
The entries below come with measured IC50 values attached.

# input Give the reported value of IC50 for this record: CC(C)S(=O)(=O)N1CC(CS(=O)(=O)NNC(=O)c2cc(-c3cn(C)cn3)cc(Cl)c2F)C1
# output 10 to 50 µM

# input Respond only with IC50 recorded for COC1CCC(CS(=O)(=O)NNC(=O)c2cc(-c3cn(C)cn3)cc(Cl)c2F)C1 (stereo not drawn)
# output 50 to 100 µM

# input Kindly indicate its recorded IC50. Item: Cc1nc(-c2cc(Cl)c(F)c(C(=O)NNS(=O)(=O)CC3CCOCC3)c2)cn1C
# output > 100 µM

# input Identify measured IC50 corresponding to Cn1cnc(-c2cc(Cl)c(F)c(C(=O)NNS(=O)(=O)CC3CCCN(C(=O)NCCO)C3)c2)c1 (stereo not drawn)
# output 10 to 50 µM

# input Look up and state reported IC50 for Cn1cnc(-c2cc(Cl)c(F)c(C(=O)NNS(=O)(=O)c3cnn(C)c3)c2)c1
# output > 100 µM

---

Biological target: KAT-6A (Homo sapiens (Human))
Test: KAT-6A biochemical inhibition assay (SAMDI mass spectrometry)
# IC50 listing for each entry below

Examples with their reported IC50 follow.
CN(C(=O)OC(C)(C)C)C1CCCC(CS(=O)(=O)NNC(=O)c2cc(-c3cn(C)cn3)cc(Cl)c2F)C1 (stereo not drawn); < 10 µM
Cn1cnc(-c2cc(Cl)c(F)c(C(=O)NNS(=O)(=O)C3CCOCC3)c2)c1; 10 to 50 µM
Cn1cnc(-c2cc(C(=O)NNS(=O)(=O)CC3CCCCC3)c(F)c(Cl)c2N(C(=O)OC(C)(C)C)C(=O)OC(C)(C)C)c1; > 100 µM
COCCOC1CCCC(CS(=O)(=O)NNC(=O)c2cc(-c3cn(C)cn3)cc(Cl)c2F)C1 (stereo not drawn); < 10 µM
Cn1cnc(-c2cc(Cl)c(F)c(C(=O)NNS(=O)(=O)CC3CCN(C(=O)CO)C3)c2)c1 (stereo not drawn); 10 to 50 µM

# input State its IC50: COc1ccc(CN(C)C(=O)N2CC[C@@H](CS(=O)(=O)NNC(=O)c3cc(-c4cn(C)cn4)cc(Cl)c3F)C2)cc1
# output < 10 µM

# input Report IC50 for Cn1cnc(-c2cc(Cl)c(F)c(C(=O)NNS(=O)(=O)C[C@H]3CC[C@H](NC(=O)c4ccncc4)CC3)c2)c1
# output < 10 µM

# input Determine from records and report IC50 for Cn1cnc(-c2cc(Cl)c(F)c(C(=O)NNS(=O)(=O)CC3CCCC(N)C3)c2)c1 (stereo not drawn)
# output 10 to 50 µM

# input Let me know recorded IC50 for Cc1ccn(-c2cc(Cl)c(F)c(C(=O)NNS(=O)(=O)CC3CCOCC3)c2)n1 , thanks.
# output < 10 µM

---

IC50 by entry:
Target: KAT-6A (Homo sapiens (Human))
Assay: KAT-6A biochemical inhibition assay (SAMDI mass spectrometry)
Conditions: Table 5

# input Please supply the value of reported IC50 for the item Cc1cccc(-c2cc(Cl)c(F)c(C(=O)NNS(=O)(=O)CC3CN(C)CCN3C)c2)c1 (centres unmarked) [Compound A-17]
# output 10 to 50 µM

# input Tell us which IC50 value is on record for Cc1cccc(-c2cc(Cl)c(F)c(C(=O)NNS(=O)(=O)C[C@@H]3CCCNC3)c2)c1 [Compound A-10]
# output > 100 µM

---

Target: KAT-8 (Homo sapiens (Human), UniProt Q9H7Z6)
Assay: KAT-8 biochemical inhibition assay (SAMDI mass spectrometry)
IC50 for assorted molecules

Reference set (2 entries):
O=C(NNS(=O)(=O)CC1CCCCC1)c1cc(-n2ccnc2)cc(Cl)c1F [Compound I-44]; > 100 µM
Cc1ncc(-c2cc(Cl)c(F)c(C(=O)NNS(=O)(=O)C3CCCCC3)c2)n1C [Compound I-59]; > 100 µM

# input Assign IC50 to the following record: Cn1cnc(-c2cc(Cl)c(F)c(C(=O)NNS(=O)(=O)c3cccc(O)n3)c2)c1 [Compound I-391]
# output 50 to 100 µM

# input Please indicate IC50 recorded for COc1ccc(CN(C)C(=O)N[C@H]2C[C@@H](CS(=O)(=O)NNC(=O)c3cc(-c4cn(C)cn4)cc(Cl)c3F)C2)cc1 [Compound I-161]
# output 10 to 50 µM

---

Target: KAT-5 (Homo sapiens (Human), UniProt Q92993)
Sequence (Q92993 other isoform, or with tags, fused parts or gaps): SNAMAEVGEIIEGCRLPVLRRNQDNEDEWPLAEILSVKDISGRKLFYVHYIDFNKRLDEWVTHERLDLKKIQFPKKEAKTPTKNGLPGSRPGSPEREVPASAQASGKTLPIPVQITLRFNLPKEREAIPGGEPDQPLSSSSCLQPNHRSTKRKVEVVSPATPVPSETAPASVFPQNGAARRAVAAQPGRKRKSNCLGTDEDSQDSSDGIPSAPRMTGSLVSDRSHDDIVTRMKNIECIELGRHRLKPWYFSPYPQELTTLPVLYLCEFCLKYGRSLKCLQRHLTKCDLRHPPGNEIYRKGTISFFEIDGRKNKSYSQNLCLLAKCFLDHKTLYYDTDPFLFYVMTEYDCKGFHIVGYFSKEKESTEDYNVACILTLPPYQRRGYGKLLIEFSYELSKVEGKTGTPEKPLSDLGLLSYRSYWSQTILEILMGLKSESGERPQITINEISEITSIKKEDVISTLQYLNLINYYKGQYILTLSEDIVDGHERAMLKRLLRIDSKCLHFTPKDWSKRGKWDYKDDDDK
Test: KAT-5 biochemical inhibition assay (SAMDI mass spectrometry)
Property: IC50; scope: individual compounds

# input Write down IC50 measured for item COCC(=O)N1CCCC(CS(=O)(=O)NNC(=O)c2cc(-c3cn(C)cn3)cc(Cl)c2F)C1 (centres unmarked)
# output < 10 µM

# input Please give the documented IC50 of Cn1cnc(-c2cc(Cl)c(F)c(C(=O)NNS(=O)(=O)CC3CN(S(=O)(=O)C4CCC4)C3)c2)c1
# output 10 to 50 µM

# input Give a short answer stating reported IC50 for Cc1cc(-c2cn(CCO)cn2)cc(C(=O)NNS(=O)(=O)CC2CCOCC2)c1F .
# output 10 to 50 µM

---

Target: KAT-5 (Homo sapiens (Human), UniProt Q92993)
Test: KAT-5 biochemical inhibition assay (SAMDI mass spectrometry)
pIC50: −log10 of the molar value.
measure-name: pIC50

In the examples that follow, each entry is paired with its recorded pIC50.
Cc1cc(-c2cn(C)cn2)cc(C(=O)NNS(=O)(=O)C2CCCCC2)c1F; > 5.00
Cn1ccc(-c2cc(Cl)c(F)c(C(=O)NNS(=O)(=O)CC3CCOCC3)c2)n1; 4.30 to 5.00
CCNC(=O)N1CCC(CS(=O)(=O)NNC(=O)c2cc(-c3cn(C)cn3)cc(Cl)c2F)C1 (centres unmarked) [Compound I-88]; > 5.00
CCC(=O)N[C@H]1CC[C@@H](CS(=O)(=O)NNC(=O)c2cc(-c3cn(C)cn3)cc(Cl)c2F)CC1; > 5.00
COCCc1nc(-c2cc(Cl)c(F)c(C(=O)NNS(=O)(=O)CC3CCCCC3)c2)cn1C; 4.30 to 5.00

# input Return value of pIC50 for input COCCn1cnc(-c2cc(C)c(F)c(C(=O)NNS(=O)(=O)CC3CCCNC3)c2)c1 (centres unmarked) , no commentary.
# output < 4.00

# input Supply pIC50 value. Item: Cn1cnc(-c2cc(Cl)c(F)c(C(=O)NNS(=O)(=O)C3CCCC3)c2)c1
# output 4.30 to 5.00

# input Query pIC50 for Cn1cnc(-c2cc(Cl)c(F)c(C(=O)NNS(=O)(=O)C[C@H]3CCC[C@@H](NC(=O)OC(C)(C)C)C3)c2)c1
# output > 5.00
